- tested_target: UniProtKB P08172
- Sequence (P08172 whole entry): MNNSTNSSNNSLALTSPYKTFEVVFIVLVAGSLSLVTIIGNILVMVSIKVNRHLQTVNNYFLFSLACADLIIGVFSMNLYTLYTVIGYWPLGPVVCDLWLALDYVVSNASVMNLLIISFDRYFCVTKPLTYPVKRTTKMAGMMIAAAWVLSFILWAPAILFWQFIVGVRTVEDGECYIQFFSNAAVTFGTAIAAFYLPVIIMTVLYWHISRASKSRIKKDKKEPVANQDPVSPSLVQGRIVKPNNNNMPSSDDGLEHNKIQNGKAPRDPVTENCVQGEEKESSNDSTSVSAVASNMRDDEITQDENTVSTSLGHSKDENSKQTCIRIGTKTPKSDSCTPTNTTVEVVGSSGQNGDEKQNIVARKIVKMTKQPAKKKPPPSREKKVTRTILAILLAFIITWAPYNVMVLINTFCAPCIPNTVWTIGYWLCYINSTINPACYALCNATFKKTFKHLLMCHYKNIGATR
- Format: functional, cell-based
readout: AC50

// solved cases for AC50 follow
molecule	AC50
C[C@H]1c2cccc(O)c2C(=O)C2=C(O)[C@]3(O)C(=O)C(C(N)=O)=C(O)[C@@H](N(C)C)[C@@H]3[C@@H](O)[C@@H]21	> 10 µM
Clc1ccc2c(N3CCN(CCCN4CCN(c5ccnc6cc(Cl)ccc56)CC4)CC3)ccnc2c1	> 30 µM
CC(C)Cc1ccc(C(C)C(=O)O)cc1 (stereo not given)	> 10 µM
Nc1ncn([C@H]2C[C@H](O)[C@@H](CO)O2)c(=O)n1	> 30 µM
O=C(O)c1ccccc1Nc1cc(Cl)ccc1C(=O)O	> 30 µM

Now let's try a different one.
I am curious: what AC50 value has been reported for COc1cc(N)c(Cl)cc1C(=O)NC1CCN(Cc2ccccc2)CC1 [CLEBOPRIDE] ? > 30 µM

###

As an illustration, consider measured AC50 for compounds on Type-1 angiotensin II receptor (Homo sapiens, UniProt P30556).
Sequence (P30556 whole entry): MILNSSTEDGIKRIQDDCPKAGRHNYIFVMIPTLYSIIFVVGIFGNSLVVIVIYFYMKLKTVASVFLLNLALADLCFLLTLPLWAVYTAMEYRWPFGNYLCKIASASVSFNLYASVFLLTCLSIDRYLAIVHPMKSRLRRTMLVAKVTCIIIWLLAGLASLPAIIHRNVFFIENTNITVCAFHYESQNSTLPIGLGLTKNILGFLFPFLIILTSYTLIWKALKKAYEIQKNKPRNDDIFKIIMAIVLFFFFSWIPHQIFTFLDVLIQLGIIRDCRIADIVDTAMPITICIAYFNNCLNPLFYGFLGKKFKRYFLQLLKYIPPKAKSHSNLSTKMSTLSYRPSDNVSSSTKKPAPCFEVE

# example entries with known answers
compound	readout	measurement
COc1ccc(CC2c3cc(OC)c(OC)cc3CC[N+]2(C)CCC(=O)OCCCCCOC(=O)CC[N+]2(C)CCc3cc(OC)c(OC)cc3C2Cc2ccc(OC)c(OC)c2)cc1OC (stereo not drawn)	AC50	> 30 µM
CCCc1nc(C(C)(C)O)c(C(=O)O)n1Cc1ccc(-c2ccccc2-c2nnn[nH]2)cc1	AC50	0.0004 µM
C[C@H](Cc1ccc(O)c(O)c1)[C@@H](C)Cc1ccc(O)c(O)c1	AC50	> 10 µM
C[C@@H](NCCCc1cccc(C(F)(F)F)c1)c1cccc2ccccc12	AC50	> 30 µM
COc1ccc(-c2noc(CC(=O)O)c2-c2ccc(OC)cc2)cc1	AC50	> 30 µM
C=C[C@H]1C[N@@]2CC[C@H]1C[C@@H]2[C@@H](O)c1ccnc2ccc(OC)cc12	AC50	> 30 µM
O=C(O)c1cn(C2CC2)c2cc(N3CCNCC3)c(F)cc2c1=O	AC50	> 30 µM
CCCN[C@H]1CCc2nc(N)sc2C1 [PRAMIPEXOLE]	AC50	> 30 µM
NC(=O)CN1CCCC1=O	AC50	> 30 µM
C=C1/C(=C\C=C2/CCC[C@]3(C)[C@@H]([C@H](C)/C=C/[C@@H](O)C4CC4)CC[C@@H]23)C[C@@H](O)C[C@@H]1O	AC50	> 30 µM

Notebook entry, Type-1 angiotensin II receptor (Homo sapiens, UniProt P30556) assay: AC50 of OC[C@H]1O[C@@](CO)(O[C@H]2O[C@H](CO)[C@@H](O)[C@H](O)[C@H]2O)[C@@H](O)[C@@H]1O = ? > 30 µM

Now consider CC(C(=O)O)c1ccc2c(c1)[nH]c1ccc(Cl)cc12 (stereo not drawn) and answer again. > 30 µM

Okay, and Cc1cc2cc3c(C)cc(=O)oc3c(C)c2o1 ? > 10 µM

Same question, CN1CCC(=C2c3ccccc3CCc3cccnc32)CC1 this time > 30 µM

Cc1onc(-c2ccccc2)c1-c1ccc(S(N)(=O)=O)cc1 ? > 30 µM

Quick one: C#C[C@]1(OC(C)=O)CC[C@H]2[C@@H]3CCC4=C/C(=N/O)CC[C@@H]4[C@H]3CC[C@@]21CC [NORGESTIMATE] 22 µM

Same again, this time with COc1ccccc1Oc1c(NS(=O)(=O)c2ccc(C(C)(C)C)cc2)nc(-c2ncccn2)nc1OCCO > 30 µM

Please do the same for CCN(CC)CCN1C(=O)CN=C(c2ccccc2F)c2cc(Cl)ccc21 as well. > 30 µM

###

Quick reference for AC50 among some compounds
- tested_target: Vasopressin V2 receptor (Homo sapiens, UniProt P30518); note: assay procedure not described here
- Sequence (P30518 whole entry): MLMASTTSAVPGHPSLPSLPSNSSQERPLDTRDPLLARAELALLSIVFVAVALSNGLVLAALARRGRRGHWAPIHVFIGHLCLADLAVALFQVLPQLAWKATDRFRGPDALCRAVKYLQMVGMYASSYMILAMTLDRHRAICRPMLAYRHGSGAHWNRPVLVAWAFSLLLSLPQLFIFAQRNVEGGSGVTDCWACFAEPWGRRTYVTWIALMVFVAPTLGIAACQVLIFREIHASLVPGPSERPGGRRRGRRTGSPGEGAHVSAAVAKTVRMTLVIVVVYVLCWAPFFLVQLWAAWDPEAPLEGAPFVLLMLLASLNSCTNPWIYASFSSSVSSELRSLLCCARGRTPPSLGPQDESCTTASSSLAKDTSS

Solved entries:
compound	measurement
Cc1cnc(C(=O)NCCc2ccc(S(=O)(=O)NC(=O)NC3CCCCC3)cc2)cn1 [GLIPIZIDE]	> 30 µM
O=C(O)c1ccccc1Nc1cc(Cl)ccc1C(=O)O	> 30 µM
CCCCCC(=O)O[C@]1(C(C)=O)CC[C@H]2[C@@H]3CCC4=CC(=O)CC[C@]4(C)[C@H]3CC[C@@]21C [HYDROXYPROGESTERONE CAPROATE]	> 30 µM
Cc1noc(NS(=O)(=O)c2ccc(N)cc2)c1C	> 10 µM
CC(C)(C)C(=O)OCC(=O)[C@H]1CC[C@H]2[C@@H]3CCC4=CC(=O)CC[C@]4(C)[C@H]3CC[C@]12C [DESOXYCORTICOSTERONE PIVALATE]	> 10 µM
CN(C)CCc1c[nH]c2ccc(Cn3cncn3)cc12	> 30 µM
CNC1=Nc2ccc(Cl)cc2C(c2ccccc2)=[N+]([O-])C1 [CHLORDIAZEPOXIDE]	> 30 µM
CCN(CC)C(=O)Nc1ccc(OCC(O)CNC(C)(C)C)c(C(C)=O)c1 (stereo not drawn)	> 30 µM

Please give the measured AC50 for this compound: CCC(COC(=O)c1cc(OC)c(OC)c(OC)c1)(c1ccccc1)N(C)C (stereo not drawn) > 30 µM

Let us now turn to CN(C)CC[C@@H](c1ccc(Cl)cc1)c1ccccn1 > 30 µM

Queued: CC(C(=O)O)c1ccc2c(c1)[nH]c1ccc(Cl)cc12 (stereo not drawn) > 30 µM

And for CCCC(CCC)C(N)=O [VALPROMIDE] ? > 30 µM

Entry to check: CCOC(=O)C1=C[C@]2(CC)CCCN3CCc4c(n1c1ccccc41)[C@@H]32 > 30 µM

Another compound to check: Cc1cc2cc3c(C)cc(=O)oc3c(C)c2o1 > 10 µM

Next up: Cn1c(=O)cc(N2CCC[C@@H](N)C2)n(Cc2ccccc2C#N)c1=O > 30 µM

Please answer likewise for C[C@]12C=CC(=O)N[C@@H]1CC[C@@H]1[C@@H]2CC[C@]2(C)[C@@H](C(=O)Nc3cc(C(F)(F)F)ccc3C(F)(F)F)CC[C@@H]12 [DUTASTERIDE] > 10 µM

# repeat for CCC(C)C1(CC)C(=O)NC(=O)NC1=O (stereo not drawn) > 30 µM

Repeat for the following compound: O=C1C(CC[S+]([O-])c2ccccc2)C(=O)N(c2ccccc2)N1c1ccccc1 (stereo not drawn) > 10 µM

Also need COCC1=C(C(=O)O)N2C(=O)[C@@H](NC(=O)/C(=N\OC)c3csc(N)n3)[C@H]2SC1 , thanks. > 30 µM

Check CC(C)Cc1ccc(C(C)C(=O)O)cc1 (stereo not drawn) too. > 30 µM

Now consider C/C(=C\C(=O)OCCCCCCCCC(=O)O)C[C@@H]1OC[C@H](C[C@@H]2O[C@H]2[C@@H](C)[C@H](C)O)[C@@H](O)[C@H]1O and answer again. > 10 µM

Please give the result for CCCN[C@H]1CCc2nc(N)sc2C1 [PRAMIPEXOLE] too. > 30 µM

Same thing, different compound: CCCCC1C(=O)N(c2ccccc2)N(c2ccccc2)C1=O > 30 µM

Entry Nc1ncn([C@H]2C[C@H](O)[C@@H](CO)O2)c(=O)n1 please > 30 µM

###

The following molecules have recorded AC50 on D(3) dopamine receptor (Homo sapiens, UniProt P35462).
Sequence (P35462 whole entry): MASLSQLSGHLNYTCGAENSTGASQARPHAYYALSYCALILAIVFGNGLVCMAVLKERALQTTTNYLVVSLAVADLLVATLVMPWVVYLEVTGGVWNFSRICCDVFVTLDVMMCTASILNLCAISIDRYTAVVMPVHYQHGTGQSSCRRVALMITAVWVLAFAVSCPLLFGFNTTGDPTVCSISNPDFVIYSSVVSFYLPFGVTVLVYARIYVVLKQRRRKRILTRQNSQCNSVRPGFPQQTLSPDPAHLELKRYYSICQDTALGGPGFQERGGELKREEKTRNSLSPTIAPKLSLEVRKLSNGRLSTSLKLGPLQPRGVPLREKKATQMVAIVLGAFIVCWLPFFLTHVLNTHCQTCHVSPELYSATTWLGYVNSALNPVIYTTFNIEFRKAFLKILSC
Could you give me the number in µM? Just the number is fine.

Past entries and their recorded results:
molecule	measurement
CC(C(=O)O)c1ccc(-c2ccccc2)c(F)c1 (configuration not stated)	0.086
CCN(CC)CCN1C(=O)CN=C(c2ccccc2F)c2cc(Cl)ccc21	8.4

// switching to the query molecule
What does the record list as AC50 for CN1C[C@H](C(=O)N[C@]2(C)O[C@@]3(O)[C@@H]4CCCN4C(=O)[C@H](Cc4ccccc4)N3C2=O)C=C2c3cccc4[nH]cc(c34)C[C@H]21 ? 1.6

###

Some compounds, each annotated with its measured AC50.
- tested_target: UniProt:P03372
- Sequence (P03372 whole entry): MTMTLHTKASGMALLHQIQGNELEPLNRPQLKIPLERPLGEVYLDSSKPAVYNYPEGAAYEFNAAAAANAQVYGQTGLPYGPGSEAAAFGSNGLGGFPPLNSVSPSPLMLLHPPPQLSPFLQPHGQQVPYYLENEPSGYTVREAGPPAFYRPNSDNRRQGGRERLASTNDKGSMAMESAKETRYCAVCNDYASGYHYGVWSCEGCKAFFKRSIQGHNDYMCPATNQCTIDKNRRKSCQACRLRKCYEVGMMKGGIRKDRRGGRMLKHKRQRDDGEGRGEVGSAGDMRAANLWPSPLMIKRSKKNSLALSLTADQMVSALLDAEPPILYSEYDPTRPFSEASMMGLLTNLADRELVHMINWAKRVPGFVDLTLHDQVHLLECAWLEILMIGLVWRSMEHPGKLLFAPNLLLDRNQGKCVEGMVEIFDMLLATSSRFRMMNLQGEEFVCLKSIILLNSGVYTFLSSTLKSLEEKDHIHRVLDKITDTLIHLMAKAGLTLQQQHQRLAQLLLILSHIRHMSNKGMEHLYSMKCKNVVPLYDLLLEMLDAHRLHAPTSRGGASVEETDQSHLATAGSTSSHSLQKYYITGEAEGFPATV

Recorded results for 5 compounds are shown here.
> print(dat)
                                   compound  measurement
1  OC[C@H]1O[C@@](CO)(O[C@H]2O[C@H](CO)[C@@H](O)[C@H](O)[C@H]2O)[C@@H](O)[C@@H]1O [SUCROSE]      > 30 µM
2   CC12CC3CC(C)(C1)CC(N)(C3)C2 [MEMANTINE]       1.6 µM
3  CCC(=O)O[C@H]1CC[C@H]2[C@@H]3CCC4=CC(=O)CC[C@]4(C)[C@H]3CC[C@]12C [TESTOSTERONE PROPIONATE]      > 30 µM
4  COc1cc2c(cc1OC)C(CCc1ccc(Cl)cc1)N(C)CC2 (stereo not drawn) [METHOPHOLINE]      > 30 µM
5  COc1ccccc1Oc1c(NS(=O)(=O)c2ccc(C(C)(C)C)cc2)nc(-c2ncccn2)nc1OCCO [BOSENTAN]      > 30 µM

Fill in: AC50 of CCCCC1C(=O)N(c2ccccc2)N(c2ccccc2)C1=O [PHENYLBUTAZONE] is ___ > 10 µM

Another compound to look at: CC(C)COCC(CN(Cc1ccccc1)c1ccccc1)N1CCCC1 (stereo not drawn) [BEPRIDIL] > 30 µM

Would you mind doing Clc1ccc(C(Cn2ccnc2)OCc2ccsc2Cl)c(Cl)c1 (stereo not drawn) [TIOCONAZOLE] as well? > 10 µM
